# Tested on: Wolbachia pipientis
# ASSAY_COMMENT: Anti-Wolbachia Cell-Based Screen
# Format: functional
# Parameters: scale not given: in the data most compounds retested in dose-response had high values
# EXPERIMENTAL_CONTEXT: 5 µM
The whole screen tested about 48,000 compounds, of which about 13,000 (27%) showed an effect of 50% or more. Some of the results follow.
OBSERVABLE: Percent Effect

INSERT INTO measurements (compound, target_or_test_system, observable, result) VALUES
  ('Cn1nc(-c2cccs2)cc1[C@H]1CN2CC[C@H]1C[C@@H]2CNS(C)(=O)=O', 'Wolbachia pipientis', 'Percent Effect', '-2.456%'),
  ('O=C(O)C(F)(F)F.c1cc(COC[C@H]2CCC[C@]23CNCCO3)ccn1', 'Wolbachia pipientis', 'Percent Effect', '99.79%'),
  ('O=C(O)C(F)(F)F.O=C(O)C(F)(F)F.O=C1NCC[C@]12CN(Cc1ccncc1)C[C@H]2c1ccccc1', 'Wolbachia pipientis', 'Percent Effect', '4.919%');

Please report Percent Effect for every entry that follows.
1. CN(C)C(=O)[C@H]1C[C@H]2OCC[C@H]2N(Cc2ccccn2)C1
2. O=C(NCC1CC[C@@]2(CNCCOC2)O1)c1cccnc1 (stereo not given in full)

A)
["-23.53%", "-3.368%"]
